- Test system: T-47D breast
- TEST_SUMMARY: NCI tumour cell line growth inhibition, 48 h
MEASURE: log10 of TGI (log10 of the value in µM)

COMPOUND: CC1=CCC(OC(=O)C(C)(C)CCC(O)(C(=O)OC2(C(C)C)CCC3(C)OC3C2)C(C)C)(C(C)C)CC1 (configuration not stated)
EXPERIMENTAL_SYSTEM: T-47D breast
MEASURE: log10 of TGI
OBS_VALUE: 0.09
--
COMPOUND: CC(C)(O)C1CCC(Nc2ccc3ncc(-c4cccc(C(F)(F)F)c4)n3n2)CC1 (configuration not stated)
EXPERIMENTAL_SYSTEM: T-47D breast
MEASURE: log10 of TGI
OBS_VALUE: 0.71
--
COMPOUND: CCCCCCCCCCCCCCCC[N+](C)(C)CCN(Cc1ccc(OC)cc1)c1ncccn1
EXPERIMENTAL_SYSTEM: T-47D breast
MEASURE: log10 of TGI
OBS_VALUE: 0.47
--
COMPOUND: C=C1CC2(C[C@@H](c3ccccc3)O[C@@H](c3ccccc3)C2)OC1=O (some centres not stated)
EXPERIMENTAL_SYSTEM: T-47D breast
MEASURE: log10 of TGI
OBS_VALUE: 0.57
--
COMPOUND: C=C[C@H]1CC[C@H]2[C@@H]3CC=C4C[C@@H](OC5OCC(O)C(O)C5O)CC[C@]4(C)[C@H]3CC[C@]12C (some centres not stated)
EXPERIMENTAL_SYSTEM: T-47D breast
MEASURE: log10 of TGI
OBS_VALUE: 1.74
--
COMPOUND: CC(CN1CCN(C)CC1)CN1c2ccccc2Sc2ccc(C(F)(F)F)cc21 (configuration not stated)
EXPERIMENTAL_SYSTEM: T-47D breast
MEASURE: log10 of TGI
OBS_VALUE: 0.66
--
COMPOUND: CN(c1ccc(NC(=O)Nc2ccc(OC(F)(F)F)cc2)cc1)c1ccnc(Nc2cccc(S(N)(=O)=O)c2)n1
EXPERIMENTAL_SYSTEM: T-47D breast
MEASURE: log10 of TGI
OBS_VALUE: 0.97
--
COMPOUND: CCCc1c(O)c(=O)c2c(OC)cc(OC)c3c4c(OC)cc(OC)c5c(=O)c(O)c(CCC)c(c1c23)c54
EXPERIMENTAL_SYSTEM: T-47D breast
MEASURE: log10 of TGI
OBS_VALUE: 0.76
--
COMPOUND: CCc1ccccc1N1CCN(C(=O)c2cc(OC)c(OC)c(OC)c2)CC1
EXPERIMENTAL_SYSTEM: T-47D breast
MEASURE: log10 of TGI
OBS_VALUE: 1.83
--
COMPOUND: CCN1CCN(CC(=O)Nc2nc3ccc(NCc4ccc(Cl)cc4)cc3s2)CC1
EXPERIMENTAL_SYSTEM: T-47D breast
MEASURE: log10 of TGI
OBS_VALUE: 0.76
--
COMPOUND: COc1ccc(-c2cc(-c3ccccc3)nc(N3CCN(CCNc4ccnc5cc(Cl)ccc45)CC3)n2)cc1
EXPERIMENTAL_SYSTEM: T-47D breast
MEASURE: log10 of TGI
OBS_VALUE: 0.57
--
COMPOUND: CCCCCCC#Cc1ccccc1C#CCO
EXPERIMENTAL_SYSTEM: T-47D breast
MEASURE: log10 of TGI
OBS_VALUE: 1.55
--
COMPOUND: C=C(C)[C@@H]1CC[C@]2(C(=O)NCCNCCNCCN)CC[C@]3(C)[C@H](CC[C@@H]4[C@@]5(C)CC[C@H](O)C(C)(C)[C@@H]5CC[C@]43C)[C@@H]12
EXPERIMENTAL_SYSTEM: T-47D breast
MEASURE: log10 of TGI
OBS_VALUE: 1.51
--
COMPOUND: O=Cc1cn(Cc2cccc(Cl)c2)c2ccccc12
EXPERIMENTAL_SYSTEM: T-47D breast
MEASURE: log10 of TGI
OBS_VALUE: 1.13
--
COMPOUND: COc1ccc(C(=O)COc2cccc(/C=C3\CSc4ccccc4C3=O)c2)cc1
EXPERIMENTAL_SYSTEM: T-47D breast
MEASURE: log10 of TGI
OBS_VALUE: 0.76
--
COMPOUND: NC(=O)c1oc([N+](=O)[O-])c(-c2ccccc2)c1-c1ccccc1
EXPERIMENTAL_SYSTEM: T-47D breast
MEASURE: log10 of TGI
OBS_VALUE: 1.70
--
COMPOUND: O=C(/C=C/c1cccs1)c1ccc(Nc2nc(Nc3ccc(F)cc3)nc(Nc3ccc(F)cc3)n2)cc1
EXPERIMENTAL_SYSTEM: T-47D breast
MEASURE: log10 of TGI
OBS_VALUE: 1.90

====

- System: NCI-H23 lung
- TEST_SUMMARY: NCI tumour cell line growth inhibition, 48 h

COMPOUND: Cn1ccnc1C(=O)/C=C/c1ccc(CC(=O)Nc2ccc(S(F)(F)(F)(F)F)cc2)cc1
TGI: 4.82 µM
//
COMPOUND: N=C(N)C(N=Nc1ccccc1)C(N)=O (stereo not given)
TGI: > 100 µM
//
COMPOUND: O=C1/C(=C/c2ccc3c(c2)OCO3)CCC1CN1CCOCC1 (stereo not given)
TGI: 25.1 µM
//
COMPOUND: CCOC(=O)NC(C(=O)OCC)C(F)(F)F (stereo not given)
TGI: > 100 µM
//
COMPOUND: CN1CCN(c2nc(NCCCCNc3ccnc4cc(Cl)ccc34)c3ccccc3n2)CC1
TGI: 29.7 µM
//
COMPOUND: CC1=CCC(OC(=O)C(C)(C)CCC(O)(C(=O)OC2(C(C)C)CCC3(C)OC3C2)C(C)C)(C(C)C)CC1 (stereo not given)
TGI: 0.301 µM
//
COMPOUND: O=C(c1ccco1)n1c2ccc(Br)cc2c2nc3ccccc3nc21
TGI: > 100 µM
//
COMPOUND: CCOP(=O)(OCC)/C(C#N)=C/c1ccc(-c2ccc(F)cc2F)o1
TGI: 33.6 µM
//
COMPOUND: COc1ccc(-c2cc(-c3ccccc3)nc(N3CCN(CCNc4ccnc5cc(Cl)ccc45)CC3)n2)cc1
TGI: 5.23 µM
//
COMPOUND: NC(=O)c1oc([N+](=O)[O-])c(-c2ccccc2)c1-c1ccccc1
TGI: 35 µM
//
COMPOUND: C/C(=C\c1ccn(-c2ccc(N)c(F)c2)n1)[C@@H]1C[C@@H]2O[C@]2(C)CCC[C@H](C)[C@H](O)[C@@H](C)C(=O)C(C)(C)[C@@H](O)CC(=O)O1
TGI: > 50 µM
//
COMPOUND: C[C@]12CC[C@@H]3c4ccc(O)cc4CC[C@H]3[C@@H]1CC[C@@H]2NS(=O)(=O)c1cccc(C(F)(F)F)c1
TGI: 15.8 µM
//
COMPOUND: COc1ccc(C2C3CCc4ccccc4C3=NN2S(=O)(=O)c2ccc(Cl)cc2)cc1 (stereo not given)
TGI: > 100 µM
//
COMPOUND: C=CCNCCCN1C(=O)c2ccc3c4c(ccc(c24)C1=O)C(=O)N(CCCNCC=C)C3=O
TGI: 1.42 µM
//
COMPOUND: [C-]#[O+].[C-]#[O+].[C-]#[O+].[C-]#[O+].[Ir].[Ir].[O-]c1ccc2ccccc2c1C=Nc1ccc(N=Cc2c([O-])ccc3ccccc23)cc1
TGI: > 100 µM
//
COMPOUND: Fc1cccc2cc3ccc4cccc5ccc(c12)c3c45
TGI: > 100 µM
//
COMPOUND: O=c1[nH]nc2ccccc2c1Cl
TGI: 35.9 µM
//
COMPOUND: O=c1c2c(c1=O)C1(SCCCS1)c1cc(Cl)ccc1O2
TGI: > 100 µM
//
COMPOUND: O=C1CC(c2ccc3c(c2)OCO3)Nc2cc3c(cc21)OCO3 (stereo not given)
TGI: > 100 µM
//
COMPOUND: COP(=O)(OC)C(=NCc1ccccc1)NNc1ccc([N+](=O)[O-])cc1
TGI: 61.4 µM

====

- Tested on: OVCAR-4 ovarian
- TEST_SUMMARY: NCI tumour cell line growth inhibition, 48 h

MOLECULE: O=C1CC(c2ccc3c(c2)OCO3)Nc2cc3c(cc21)OCO3 (configuration not stated)
EXPERIMENTAL_SYSTEM: OVCAR-4 ovarian
GI50: 1040 nM
--
MOLECULE: O=Cc1cn(Cc2cccc(Cl)c2)c2ccccc12
EXPERIMENTAL_SYSTEM: OVCAR-4 ovarian
GI50: 2880 nM
--
MOLECULE: CCN(CCNc1ccc(C)c2sc3cc(Cl)ccc3c(=O)c12)CC(C)O (configuration not stated)
EXPERIMENTAL_SYSTEM: OVCAR-4 ovarian
GI50: 4920 nM
--
MOLECULE: C=C(C)[C@@H]1CC[C@]2(C(=O)NCCNCCNCCN)CC[C@]3(C)[C@H](CC[C@@H]4[C@@]5(C)CC[C@H](O)C(C)(C)[C@@H]5CC[C@]43C)[C@@H]12
EXPERIMENTAL_SYSTEM: OVCAR-4 ovarian
GI50: 14100 nM
--
MOLECULE: O=C1C=C[C@@]23C[C@@H](Nc4c(O)c5c6c(c42)=NCCC=6C=N5)SC3=C1
EXPERIMENTAL_SYSTEM: OVCAR-4 ovarian
GI50: 1830 nM
--
MOLECULE: Cn1ccnc1C(=O)/C=C/c1ccc(CC(=O)Nc2ccc(S(F)(F)(F)(F)F)cc2)cc1
EXPERIMENTAL_SYSTEM: OVCAR-4 ovarian
GI50: 2350 nM
--
MOLECULE: O=C(CCCCCCSc1nc(-c2ccccc2)cc(-c2ccccc2)n1)NO
EXPERIMENTAL_SYSTEM: OVCAR-4 ovarian
GI50: 3050 nM

These entries and their values trace back to PubChem BioAssay (NCI).
